molecular target: CDK-2 enzyme, complexed with cyclin A (Homo sapiens, UniProt P24941); assay: CDK2 enzyme inhibition assay (33P phosphorylation of peptide […], filter plate); conditions: CDK-2/cyclin A, 0.1 mM ATP, 40 min at 30° C.
Measured property: IC50 (nM)
Just the number in nM, nothing appended.

INSERT INTO assay_data (query_smiles, reading) VALUES
  ('CC(C)c1cnn2c(Nc3ccc(S(=O)(=O)N(C)C)cc3)cc(N3CCC(CN)CC3)nc12', 1860);

# input Param item = `CC(C)c1cnn2c(Nc3ccc(S(=O)(=O)N(C)C)cc3)cc(N(C)C3CCN(C)CC3)nc12` ; retrieve measured IC50.
# output 840

# input Requested read-out: IC50. Entry: `Oc1ccc(-c2cc(Nc3cccc(Cl)c3)n3nccc3n2)cc1`
# output 3960

# input Which IC50 is reported for this compound? `CN(C)S(=O)(=O)c1ccc(Nc2cc(O[C@H]3CC[C@H](N)CC3)nc3c(Br)cnn23)cc1`
# output 5
